Hello, the source for this data is the supplement of paper PMC4166925, in case you need it.

System: PmTbr T-box DNA-binding domain (GST fusion);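 also: 200 nM protein in PBS on universal arrays averaged over duplicate arrays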
Sequence: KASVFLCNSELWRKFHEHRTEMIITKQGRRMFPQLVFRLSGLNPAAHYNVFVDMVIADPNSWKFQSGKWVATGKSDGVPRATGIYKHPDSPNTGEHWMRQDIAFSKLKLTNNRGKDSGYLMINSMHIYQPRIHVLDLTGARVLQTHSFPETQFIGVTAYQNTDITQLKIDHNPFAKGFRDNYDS
Assay: PBM E-score of 8-mer (E-score (dimensionless, -0.5 to 0.5)); Tbr is Tbrain of the sea star Patiria miniata (Pm) or the sea urchin Strongylocentrotus purpuratus (Sp); higher = stronger binding preference
Conditions: the construct has about 5 more residues each side
Over roughly 33,000 sequences, “E-score (dimensionless, -0.5 to 0.5)” has its median near -0.049; the highest 2% begin near 0.37. This excerpt belongs to a sample that is enriched for the highest values.
TEST_READOUT: PBM E-score of 8-mer
Output spec: single numeric token, no unit.

Provide the reported PBM E-score of 8-mer (system: PmTbr T-box DNA-binding domain (GST fusion)) for `AGCTATCC`;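 also: 200 nM protein in PBS on universal arrays averaged over duplicate arrays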
-0.334

Provide the reported PBM E-score of 8-mer (system: PmTbr T-box DNA-binding domain (GST fusion)) for `AAGGGTGG`;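 also: 200 nM protein in PBS on universal arrays averaged over duplicate arrays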
0.189

Provide the reported PBM E-score of 8-mer (system: PmTbr T-box DNA-binding domain (GST fusion)) for `GGGTTCGA`;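 also: 200 nM protein in PBS on universal arrays averaged over duplicate arrays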
-0.0834

Provide the reported PBM E-score of 8-mer (system: PmTbr T-box DNA-binding domain (GST fusion)) for `ACGCGCAT`;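 also: 200 nM protein in PBS on universal arrays averaged over duplicate arrays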
0.0257

Provide the reported PBM E-score of 8-mer (system: PmTbr T-box DNA-binding domain (GST fusion)) for `AAAAGGTG`;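 also: 200 nM protein in PBS on universal arrays averaged over duplicate arrays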
0.442

Provide the reported PBM E-score of 8-mer (system: PmTbr T-box DNA-binding domain (GST fusion)) for `ATAGTGTC`;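 also: 200 nM protein in PBS on universal arrays averaged over duplicate arrays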
0.335

Provide the reported PBM E-score of 8-mer (system: PmTbr T-box DNA-binding domain (GST fusion)) for `GAAGTTAA`;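 also: 200 nM protein in PBS on universal arrays averaged over duplicate arrays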
0.0494

Provide the reported PBM E-score of 8-mer (system: PmTbr T-box DNA-binding domain (GST fusion)) for `AGTGTGAG`;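 also: 200 nM protein in PBS on universal arrays averaged over duplicate arrays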
0.459

Provide the reported PBM E-score of 8-mer (system: PmTbr T-box DNA-binding domain (GST fusion)) for `GACCTCAC`;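 also: 200 nM protein in PBS on universal arrays averaged over duplicate arrays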
0.0743

Provide the reported PBM E-score of 8-mer (system: PmTbr T-box DNA-binding domain (GST fusion)) for `AAAGGTGG`;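 also: 200 nM protein in PBS on universal arrays averaged over duplicate arrays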
0.234

Provide the reported PBM E-score of 8-mer (system: PmTbr T-box DNA-binding domain (GST fusion)) for `AGTGACAG`;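 also: 200 nM protein in PBS on universal arrays averaged over duplicate arrays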
0.357

Provide the reported PBM E-score of 8-mer (system: PmTbr T-box DNA-binding domain (GST fusion)) for `GGTACGAC`;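 also: 200 nM protein in PBS on universal arrays averaged over duplicate arrays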
-0.0493

Provide the reported PBM E-score of 8-mer (system: PmTbr T-box DNA-binding domain (GST fusion)) for `GGAGATTA`;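 also: 200 nM protein in PBS on universal arrays averaged over duplicate arrays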
-0.0891

Provide the reported PBM E-score of 8-mer (system: PmTbr T-box DNA-binding domain (GST fusion)) for `AGTGACAC`;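 also: 200 nM protein in PBS on universal arrays averaged over duplicate arrays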
0.44

Provide the reported PBM E-score of 8-mer (system: PmTbr T-box DNA-binding domain (GST fusion)) for `ACGCAGTA`;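 also: 200 nM protein in PBS on universal arrays averaged over duplicate arrays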
-0.0663

Provide the reported PBM E-score of 8-mer (system: PmTbr T-box DNA-binding domain (GST fusion)) for `ATTTCGCC`;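 also: 200 nM protein in PBS on universal arrays averaged over duplicate arrays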
-0.0762

Provide the reported PBM E-score of 8-mer (system: PmTbr T-box DNA-binding domain (GST fusion)) for `AAAGGTGA`;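 also: 200 nM protein in PBS on universal arrays averaged over duplicate arrays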
0.398

Provide the reported PBM E-score of 8-mer (system: PmTbr T-box DNA-binding domain (GST fusion)) for `AGCGGGTG`;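 also: 200 nM protein in PBS on universal arrays averaged over duplicate arrays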
0.308

Provide the reported PBM E-score of 8-mer (system: PmTbr T-box DNA-binding domain (GST fusion)) for `GAGGGTGA`;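 also: 200 nM protein in PBS on universal arrays averaged over duplicate arrays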
0.279
